Source: the supplement of paper PMC7877785

experiment: self-splicing fitness, log relative to wild type (ln ratio); higher = more splicing; Tetrahymena group I intron in knt gene, E. coli kanamycin selection, DiMSum; sequences stand for … in CUCUCU…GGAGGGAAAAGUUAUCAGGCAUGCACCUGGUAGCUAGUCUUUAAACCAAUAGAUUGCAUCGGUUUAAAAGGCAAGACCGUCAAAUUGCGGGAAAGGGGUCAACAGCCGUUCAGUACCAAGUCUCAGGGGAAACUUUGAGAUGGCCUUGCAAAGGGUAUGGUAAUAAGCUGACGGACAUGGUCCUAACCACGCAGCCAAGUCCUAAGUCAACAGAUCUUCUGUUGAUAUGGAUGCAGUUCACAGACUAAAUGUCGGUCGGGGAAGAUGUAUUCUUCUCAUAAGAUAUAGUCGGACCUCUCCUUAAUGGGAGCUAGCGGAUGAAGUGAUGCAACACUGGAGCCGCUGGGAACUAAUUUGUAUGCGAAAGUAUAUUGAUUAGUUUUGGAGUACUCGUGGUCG; settings: 37 °C;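 also: selection with 25 µg/mL kanamycin versus none on LB agar overnight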
// label = 1 (yes) if self-splicing fitness (ln) is not less than -2, otherwise 0 (no)

Does the reported self-splicing fitness (ln) for CCAGAGCAAUAUUACGAGGC fall at or above the -2 mark?
1 (yes)

Does the reported self-splicing fitness (ln) for UUUAAGCAAUAUUACGGCGU fall at or above the -2 mark?
1 (yes)

Does the reported self-splicing fitness (ln) for AGUUAGCAAUAUUACGUUGU fall at or above the -2 mark?
0 (no)

Does the reported self-splicing fitness (ln) for UCCCAGCAAUAUUACGCGAG fall at or above the -2 mark?
0 (no)

Does the reported self-splicing fitness (ln) for ACACAGCAAUAUUACGGGAU fall at or above the -2 mark?
1 (yes)

Does the reported self-splicing fitness (ln) for CUAUAGCAAUAUUACGUAGA fall at or above the -2 mark?
1 (yes)

Does the reported self-splicing fitness (ln) for UCAAAGCAAUAUUACGAGCG fall at or above the -2 mark?
1 (yes)

Does the reported self-splicing fitness (ln) for GCCGAGCAAUAUUACGCAUU fall at or above the -2 mark?
1 (yes)

Does the reported self-splicing fitness (ln) for ACGGAGCAAUAUUACGUGAG fall at or above the -2 mark?
1 (yes)

Does the reported self-splicing fitness (ln) for UUGAAGCAAUAUUACGAGGC fall at or above the -2 mark?
1 (yes)

Does the reported self-splicing fitness (ln) for AAUGAGCAAUAUUACGUUGG fall at or above the -2 mark?
0 (no)

Does the reported self-splicing fitness (ln) for CACUAGCAAUAUUACGAUUC fall at or above the -2 mark?
1 (yes)

Does the reported self-splicing fitness (ln) for AGGCAGCAAUAUUACGGGGC fall at or above the -2 mark?
0 (no)

Does the reported self-splicing fitness (ln) for ACGCAGCAAUAUUACGUAUA fall at or above the -2 mark?
0 (no)

Does the reported self-splicing fitness (ln) for UGGAAGCAAUAUUACGCUGA fall at or above the -2 mark?
1 (yes)
